Assay Target: human CD33 R296A (human, UniProt P20138 18-364)
Sequence (P20138 18-364 R296A limits assumed): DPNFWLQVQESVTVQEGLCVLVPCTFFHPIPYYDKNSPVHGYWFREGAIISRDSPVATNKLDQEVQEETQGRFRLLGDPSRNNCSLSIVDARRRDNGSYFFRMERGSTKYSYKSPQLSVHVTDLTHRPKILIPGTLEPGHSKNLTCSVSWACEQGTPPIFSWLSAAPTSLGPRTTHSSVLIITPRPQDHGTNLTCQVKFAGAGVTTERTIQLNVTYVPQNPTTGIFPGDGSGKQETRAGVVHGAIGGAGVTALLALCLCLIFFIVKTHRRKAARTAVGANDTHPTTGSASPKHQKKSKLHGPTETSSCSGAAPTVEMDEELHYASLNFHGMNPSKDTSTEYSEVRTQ
Assay Details: alanine scan, flow cytometry, HEK293-T;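 note: antibody binding to each alanine-substituted CD33 mutant expressed transiently in HEK293-T, read as fluorescence minus background, mean of duplicates, relative to wild-type CD33 set as 100%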
Overview of reported Mean % WT Binding across a group of binders:

Binder: Refmab #3 (antibody, V domains shown, The alanine scan used IgG or Fab) VH: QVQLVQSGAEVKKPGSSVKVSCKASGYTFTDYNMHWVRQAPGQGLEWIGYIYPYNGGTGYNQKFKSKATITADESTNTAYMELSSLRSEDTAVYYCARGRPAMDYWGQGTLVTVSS VL: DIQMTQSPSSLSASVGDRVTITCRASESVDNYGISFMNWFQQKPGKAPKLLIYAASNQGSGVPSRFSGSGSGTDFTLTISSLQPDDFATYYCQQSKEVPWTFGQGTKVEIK
Unit Symbol: % WT binding
Mean % WT Binding: 92.9

Binder: Refmab #4 (antibody, V domains shown, The alanine scan used IgG or Fab) VH: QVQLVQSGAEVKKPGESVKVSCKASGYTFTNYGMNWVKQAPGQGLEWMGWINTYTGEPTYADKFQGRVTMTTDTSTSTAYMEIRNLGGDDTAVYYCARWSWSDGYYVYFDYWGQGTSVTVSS VL: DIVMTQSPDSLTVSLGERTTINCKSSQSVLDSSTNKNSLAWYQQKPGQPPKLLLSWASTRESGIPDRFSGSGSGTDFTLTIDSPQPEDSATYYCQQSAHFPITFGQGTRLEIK
Unit Symbol: % WT binding
Mean % WT Binding: 106

Binder: Refmab #1 (antibody, V domains shown, The alanine scan used IgG or Fab; also called hP67.6) VH: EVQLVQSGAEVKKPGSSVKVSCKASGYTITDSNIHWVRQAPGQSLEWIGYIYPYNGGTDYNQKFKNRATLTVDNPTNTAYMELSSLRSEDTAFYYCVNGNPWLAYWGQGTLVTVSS VL: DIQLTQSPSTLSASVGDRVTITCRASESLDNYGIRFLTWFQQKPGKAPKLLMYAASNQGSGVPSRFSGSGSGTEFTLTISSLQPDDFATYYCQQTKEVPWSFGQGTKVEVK
Unit Symbol: % WT binding
Mean % WT Binding: 101

Binder: Refmab #2 (antibody, V domains shown, The alanine scan used IgG or Fab) VH: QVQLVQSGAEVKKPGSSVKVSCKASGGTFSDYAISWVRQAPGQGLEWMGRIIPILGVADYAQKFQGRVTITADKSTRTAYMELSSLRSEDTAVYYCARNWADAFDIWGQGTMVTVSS VL: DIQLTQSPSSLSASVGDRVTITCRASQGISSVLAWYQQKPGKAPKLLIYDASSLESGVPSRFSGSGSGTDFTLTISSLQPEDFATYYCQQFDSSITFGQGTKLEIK
Unit Symbol: % WT binding
Mean % WT Binding: 111
